assay: Intrinsic clearance in human liver microsomes assessed as per mg of protein; format: ADME, Microsome; conditions: read-out: CLH
Assignment: determine reported microsomal CLint for the given compounds.
Give your result in µL/min/mg as a bare value.

Input line: Name the reported microsomal CLint value associated with the compound Cc1c(Cl)cccc1S(=O)(=O)N1CCC[C@]1(C)C(=O)NC1CCCCC1
Output line: 140

Input line: // repeat for CC(=O)c1ccc(S(=O)(=O)N2CCC[C@]2(C)C(=O)N[C@H]2C3CC4CC2C[C@](O)(C4)C3)cc1 and report
Output line: 12

Input line: // next record CC(O)(c1ccc(S(=O)(=O)N2CCC[C@]2(C)C(=O)N[C@H]2C3CC4CC2C[C@](O)(C4)C3)cc1)C(F)(F)F (stereo partly specified)
Output line: 64

Input line: # repeat for C[C@]1(C(=O)N[C@H]2C3CC4CC2C[C@](O)(C4)C3)CCCN1S(=O)(=O)c1cccnc1
Output line: 55

Input line: Record: Cc1c(Cl)cccc1S(=O)(=O)N1CCC[C@]1(C)C(=O)N[C@H]1C2CC3CC1C[C@](O)(C3)C2
Output line: 106

Input line: Next entry: C[C@]1(C(=O)N[C@H]2C3CC4CC2C[C@](O)(C4)C3)CCCN1S(=O)(=O)c1cccc2cccnc12
Output line: 51

----------
Provide the recorded clearance for the entries that follow.
organism: Mus musculus; experiment: Clearance in BALB/c mouse; type: ADME, organism-based; details: in vivo
Field format: number, assumed mL/min/kg, no unit text.

Input line: Can you share its clearance? I mean this compound: Cc1c(Cl)cccc1S(=O)(=O)N1CCC[C@]1(C)C(=O)N[C@H]1C2CC3CC1C[C@](O)(C3)C2
Output line: 90

Input line: Lookup C[C@]1(C(=O)N[C@H]2C3CC4CC2C[C@](O)(C4)C3)CCCN1S(=O)(=O)c1cccc2cccnc12
Output line: 60

----------
experiment: AUC (0 to t) in BALB/c mouse at 5 mg/kg, ip; assay type: ADME, organism-based; parameters: dose 5 mg/kg, route intraperitoneal; settings: plasma
RECORDED_ENDPOINT: AUC(0-t) (ng·h/mL)
Write the answer as a number in ng·h/mL, unit excluded.

Input line: Returns the measured AUC(0-t) for the input molecule. Input: Cc1c(Cl)cccc1S(=O)(=O)N1CCC[C@]1(C)C(=O)N[C@H]1C2CC3CC1C[C@](O)(C3)C2
Output line: 597

Input line: Now the same for C[C@]1(C(=O)N[C@H]2C3CC4CC2C[C@](O)(C4)C3)CCCN1S(=O)(=O)c1cccc2cccnc12
Output line: 939

----------
test: Bioavailability in BALB/c mouse at 5 mg/kg, ip; format: ADME, organism-based; conditions: in vivo
RECORDED_ENDPOINT: bioavailability
Number plus unit, in that order.

Input line: If you can, please state the reported bioavailability value of Cc1c(Cl)cccc1S(=O)(=O)N1CCC[C@]1(C)C(=O)N[C@H]1C2CC3CC1C[C@](O)(C3)C2 .
Output line: 63%

Input line: Same question for C[C@]1(C(=O)N[C@H]2C3CC4CC2C[C@](O)(C4)C3)CCCN1S(=O)(=O)c1cccc2cccnc12 please.
Output line: 33%

----------
biological target: 11-beta-hydroxysteroid dehydrogenase 1 (Mus musculus, UniProt P50172); test: Inhibition of mouse 11betaHSD1 by scintillation proximity assay
Sequence (P50172 whole entry): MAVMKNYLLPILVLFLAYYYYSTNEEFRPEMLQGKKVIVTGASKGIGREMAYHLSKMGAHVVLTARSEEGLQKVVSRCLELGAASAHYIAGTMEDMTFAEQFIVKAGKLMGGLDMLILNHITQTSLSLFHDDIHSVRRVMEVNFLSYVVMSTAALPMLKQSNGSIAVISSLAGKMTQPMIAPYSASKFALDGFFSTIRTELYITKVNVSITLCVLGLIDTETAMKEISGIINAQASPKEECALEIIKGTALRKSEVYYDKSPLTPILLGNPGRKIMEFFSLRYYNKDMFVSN
Label key: 1.0 means IC50 under 90 nM; 0.0 means IC50 of 90 nM or more.

Input line: Consider C[C@]1(C(=O)N[C@H]2C3CC4CC2C[C@](O)(C4)C3)CCCN1S(=O)(=O)c1cccc2cccnc12 . Does its IC50 lie strictly below 90 nM?
Output line: 1.0

Input line: Then what about the compound C[C@]1(C(=O)N[C@H]2C3CC4CC2C[C@](O)(C4)C3)CCCN1S(=O)(=O)c1cccs1 ?
Output line: 0.0

Input line: How about Cc1c(Cl)cccc1S(=O)(=O)N1CCC[C@]1(C)C(=O)N[C@H]1C2CC3CC1C[C@](O)(C3)C2 ?
Output line: 1.0

Input line: Proceed to C[C@]1(C(=O)N[C@H]2C3CC4CC2C[C@](O)(C4)C3)CCCN1S(=O)(=O)c1ccc(Br)s1
Output line: 0.0

Input line: // same read-out, input: CC[C@]1(C(=O)N[C@H]2C3CC4CC2C[C@](O)(C4)C3)CCCN1S(=O)(=O)c1cccc2cccnc12
Output line: 0.0

Input line: Ok, now C=CC[C@]1(C(=O)N[C@H]2C3CC4CC2C[C@](O)(C4)C3)CCCN1S(=O)(=O)c1cccc2cccnc12
Output line: 1.0

Input line: What would you report for Cc1c(Cl)cccc1S(=O)(=O)N1CCC[C@@]1(C)C(=O)N[C@H]1C2CC3CC1C[C@](O)(C3)C2 ?
Output line: 1.0

Input line: And for C[C@]1(C(=O)N[C@H]2C3CC4CC2C[C@](O)(C4)C3)CCCN1S(=O)(=O)c1ccccc1C#N ?
Output line: 0.0

Input line: # iterate: Cc1c(Cl)cccc1S(=O)(=O)N1CCC[C@]1(C)C(=O)NC1C2CC3CC(C2)CC1C3 (stereo not given in full)
Output line: 1.0

Input line: Also need C[C@]1(C(=O)N[C@H]2C3CC4CC2C[C@](O)(C4)C3)CCCN1S(=O)(=O)c1ccc(C#N)cc1Cl , thanks.
Output line: 0.0

The reported numbers originate from ChEMBL document CHEMBL2150908.
